biological target: epidermal growth factor acceptor-tyrosinekinase complex (Homo sapiens); construct: endogenous in cells; host or cells: A-431 (membrane specimen, not solubilized); test: Tyrosinekinase inhibitory activity (A-431 membrane specimen, EGF-stimulated, [γ-32P]ATP); type: biochemical, human (A-431 cell line derived from human cancerous cell); conditions: 10 μM; read-out: Inhibition rate (tyrosinekinase)
Sequence (P00533 25-1210): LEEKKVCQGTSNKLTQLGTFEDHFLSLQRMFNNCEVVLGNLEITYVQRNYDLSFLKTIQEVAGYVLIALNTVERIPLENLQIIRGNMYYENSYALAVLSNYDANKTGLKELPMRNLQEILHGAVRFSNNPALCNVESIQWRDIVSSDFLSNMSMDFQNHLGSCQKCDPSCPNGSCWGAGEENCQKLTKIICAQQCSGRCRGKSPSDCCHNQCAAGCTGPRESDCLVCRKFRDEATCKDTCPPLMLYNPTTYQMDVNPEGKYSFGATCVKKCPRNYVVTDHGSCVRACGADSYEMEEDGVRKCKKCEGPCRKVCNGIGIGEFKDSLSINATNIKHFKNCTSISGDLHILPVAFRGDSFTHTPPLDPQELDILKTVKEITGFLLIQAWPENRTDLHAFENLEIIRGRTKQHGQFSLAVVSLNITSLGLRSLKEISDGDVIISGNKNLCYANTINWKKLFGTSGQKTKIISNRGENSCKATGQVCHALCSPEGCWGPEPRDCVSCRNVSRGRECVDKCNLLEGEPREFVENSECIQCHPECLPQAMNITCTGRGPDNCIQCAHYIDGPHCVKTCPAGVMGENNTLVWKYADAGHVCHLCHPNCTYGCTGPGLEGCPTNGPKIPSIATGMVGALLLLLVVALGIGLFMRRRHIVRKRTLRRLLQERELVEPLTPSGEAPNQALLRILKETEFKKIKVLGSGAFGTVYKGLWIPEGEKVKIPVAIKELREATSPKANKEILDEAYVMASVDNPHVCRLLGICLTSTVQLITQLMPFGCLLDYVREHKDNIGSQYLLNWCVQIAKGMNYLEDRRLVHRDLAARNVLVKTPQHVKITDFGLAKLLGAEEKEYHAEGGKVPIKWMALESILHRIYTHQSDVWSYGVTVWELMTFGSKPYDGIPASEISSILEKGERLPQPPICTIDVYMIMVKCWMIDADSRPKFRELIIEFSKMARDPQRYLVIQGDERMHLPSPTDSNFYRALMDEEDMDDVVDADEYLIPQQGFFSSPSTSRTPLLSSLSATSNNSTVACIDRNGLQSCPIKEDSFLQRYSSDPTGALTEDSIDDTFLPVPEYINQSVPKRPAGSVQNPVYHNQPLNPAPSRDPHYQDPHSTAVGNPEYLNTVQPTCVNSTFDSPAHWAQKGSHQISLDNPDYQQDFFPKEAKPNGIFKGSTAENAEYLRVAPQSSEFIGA
Sequence (P01132 977-1029 partner limits assumed): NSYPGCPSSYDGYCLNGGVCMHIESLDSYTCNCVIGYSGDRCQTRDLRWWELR
Would you mind telling me the reported inhibition at 10 µM of each entry?
Put your answer as a value accompanied by its unit after it.

The compound listed as "CCOc1cc(C=C(C#N)C(N)=O)cc(CSc2ccc(O)cc2)c1O" shows inhibition at 10 µM equal to 91%

The compound listed as "CCOc1cc(C=C2C(=O)NN(c3ccccc3)C2=O)cc(CSc2ccccc2)c1O" shows inhibition at 10 µM equal to 92%

The compound listed as "CCOc1cc(C=C2C(=O)NN(c3ccccc3)C2=O)cc(CSc2ccc(Cl)cc2)c1O" shows inhibition at 10 µM equal to 91%
